# TARGET OR SYSTEM: NT-3 growth factor receptor (Homo sapiens)
# Sequence (Q16288 whole entry): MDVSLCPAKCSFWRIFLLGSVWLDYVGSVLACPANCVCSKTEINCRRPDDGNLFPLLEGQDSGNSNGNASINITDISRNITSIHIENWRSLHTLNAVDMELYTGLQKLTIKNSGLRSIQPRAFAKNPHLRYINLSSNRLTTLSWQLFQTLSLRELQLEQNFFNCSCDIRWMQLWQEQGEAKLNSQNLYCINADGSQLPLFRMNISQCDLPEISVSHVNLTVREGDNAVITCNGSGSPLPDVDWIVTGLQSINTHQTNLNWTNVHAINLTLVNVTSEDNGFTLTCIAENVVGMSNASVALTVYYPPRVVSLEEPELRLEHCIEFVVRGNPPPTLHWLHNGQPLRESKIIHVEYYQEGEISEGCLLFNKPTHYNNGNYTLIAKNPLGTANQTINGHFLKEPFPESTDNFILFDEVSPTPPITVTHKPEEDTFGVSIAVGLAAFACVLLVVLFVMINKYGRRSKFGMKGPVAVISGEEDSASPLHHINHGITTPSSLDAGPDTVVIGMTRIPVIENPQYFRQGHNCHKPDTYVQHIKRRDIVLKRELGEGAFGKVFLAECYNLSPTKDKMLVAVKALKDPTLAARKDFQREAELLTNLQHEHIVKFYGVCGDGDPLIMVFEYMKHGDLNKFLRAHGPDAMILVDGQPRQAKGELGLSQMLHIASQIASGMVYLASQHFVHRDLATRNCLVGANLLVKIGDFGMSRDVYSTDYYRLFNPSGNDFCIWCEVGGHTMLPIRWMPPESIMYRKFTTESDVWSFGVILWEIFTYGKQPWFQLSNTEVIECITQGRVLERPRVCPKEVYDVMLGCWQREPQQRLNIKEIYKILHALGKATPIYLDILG
# PROTOCOL DETAILS: Inhibition of NT3-stimulated TrkC phosphorylation in human U2OS cells by beta-galactosidase reporter gene based PathHunter profiling assay
pIC50: −log10 of the molar value.
READOUT: pIC50

Can you look up the measured pIC50 of O=C(O)c1ccc(Nc2cc(N3CCN(C4CCCCC4)CC3)c3noc4c3c2C(=O)c2ccccc2-4)cc1 for me?
< 5.00

---

# TARGET OR SYSTEM: UniProtKB P08138
# Sequence (whole entry): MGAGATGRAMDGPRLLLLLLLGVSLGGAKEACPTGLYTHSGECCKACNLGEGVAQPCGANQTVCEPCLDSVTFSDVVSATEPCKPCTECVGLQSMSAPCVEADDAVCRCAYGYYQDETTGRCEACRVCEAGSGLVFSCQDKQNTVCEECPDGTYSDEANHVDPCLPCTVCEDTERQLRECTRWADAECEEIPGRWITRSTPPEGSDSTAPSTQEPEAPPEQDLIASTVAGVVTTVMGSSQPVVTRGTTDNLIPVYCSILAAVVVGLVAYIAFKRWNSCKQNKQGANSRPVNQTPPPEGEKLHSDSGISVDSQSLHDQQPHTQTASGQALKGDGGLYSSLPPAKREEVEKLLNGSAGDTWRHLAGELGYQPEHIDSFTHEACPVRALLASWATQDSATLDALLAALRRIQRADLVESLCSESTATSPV
# PROTOCOL DETAILS: Inhibition of mouse NGF binding to p75 (unknown origin) by SPR method relative to control
Some compounds, each annotated with its measured Imax.
Write the number in % without appending the unit.

| ITEM SMILES | Imax / % |
| --- | --- |
| Cc1cc2nc3c(=O)[nH]c(=O)nc-3n(C)c2cc1C=O | 37 |
| Cn1c2c(N)cc(N)cc2c(=O)n2nc(C(=O)O)c([N+](=O)[O-])c12 | 70 |

In the following, a different compound is considered.
May I ask what Imax has been recorded for O=C1c2cccc3cc([N+](=O)[O-])cc(c23)C(=O)N1NCCO ?
6.2
